# Tested on: SK-MEL-2 melanoma
# Assay remarks: NCI tumour cell line growth inhibition, 48 h
Heads up, the class ranges for TGI are bucket 1: < 10 µM; bucket 2: ≥ 10 µM and < 30 µM; bucket 3: ≥ 30 µM

- Compound: "CC1(C)CCC(C)(C)C1C(=O)NC(O)C(=O)O (stereo not drawn)"
  Category label: "bucket 3"
- Compound: "CN(C)c1ccc2oc(=O)c3ccccc3c2c1"
  Category label: "bucket 3"
- Compound: "CCN(CC)CCCNc1cc(OC)cc2nc3cc(Cl)ccc3nc12"
  Category label: "bucket 1"
- Compound: "O=C(NC(=O)c1cc(-c2ccccc2)n[nH]1)c1ccccc1"
  Category label: "bucket 3"
- Compound: "Cc1c(N=Nc2ccccc2)c(C)n(C2OC(CO)C(O)C(O)C2O)c(=S)c1C#N (stereo not drawn)"
  Category label: "bucket 3"
- Compound: "COc1ccc(C2C(C#N)=C(S)N(C3OC(COC(C)=O)C(OC(C)=O)C(OC(C)=O)C3OC(C)=O)C(c3ccccc3)=C2C(C)=O)cc1 (stereo not drawn)"
  Category label: "bucket 3"
- Compound: "O=[N+]([O-])C(/C=N/Nc1ccccc1)/C=N/Nc1ccccc1"
  Category label: "bucket 3"
- Compound: "O=C1CC[C@@]2(O)[C@H]3Cc4ccc(-c5ccccc5)c5c4[C@@]2(CCN3CC2CC2)[C@H]1O5"
  Category label: "bucket 3"
- Compound: "NC(=O)c1cc([N+](=O)[O-])c(Cl)c([N+](=O)[O-])c1Cl"
  Category label: "bucket 1"
- Compound: "COc1cc(/C=N/Nc2ncnc3c2cnn3-c2ccccc2)ccc1O"
  Category label: "bucket 2"
- Compound: "COC(=O)C1=C(O)[C@H](C(=O)OC)C2(O)C(C(=O)OC)[C@H](c3ccc(OC(=O)C(C)c4ccc(CC(C)C)cc4)cc3)C[C@@H]1[C@@H]2C(=O)OC (stereo partly drawn)"
  Category label: "bucket 3"
- Compound: "CN(c1ccc(C(=O)c2ccc(N(C)S(C)(=O)=O)cc2)cc1)S(C)(=O)=O"
  Category label: "bucket 3"
- Compound: "COc1c2c(c3ccccc3c1O)C1C=CC2C1 (stereo not drawn)"
  Category label: "bucket 3"
- Compound: "C=C/C=C/[C@@H](O)CC(=C)C[C@H]1OC2[C@H](C)[C@@H](OC(=O)C[C@H]3C[C@H](OC(C)=O)C[C@@]4(C[C@@](C)(O)C[C@H](CC(=C)[C@@H](C)[C@H](OC(C)=O)[C@H](C)C(=O)C[C@@H]5C[C@H](OC)CC6(C[C@@H](O)C[C@H](/C=C\\CCC[C@H]7O[C@](O)(C=C[C@H]7C)[C@H]2O)O6)O5)O4)O3)[C@@H]1O"
  Category label: "bucket 1"
- Compound: "N=c1c2c(=S)n(-c3ccccc3)c(=S)n(-c3ccccc3)c2nc(SCCN2CCCC2)n1-c1ccccc1"
  Category label: "bucket 2"
- Compound: "COc1ccc2c(c1)[nH]c(=O)c1c3cccc(F)c3cn21"
  Category label: "bucket 3"
- Compound: "O=S(=O)(NNc1ccccc1)c1ccccc1"
  Category label: "bucket 3"
- Compound: "Cc1ccc(/C=N/Nc2nc(Nc3ccccc3)nc(-n3nc(C)cc3C)n2)cc1"
  Category label: "bucket 2"

Provenance of the data: PubChem BioAssay (NCI)
